Test system: Monocotyledonous and dicotyledonous test plants
Experiment: Post-emergence herbicidal action, greenhouse pot test, sprayed at the 2- to 3-leaf stage, 9-level rating after 2 to 3 weeks
Assay type: in vivo
Conditions: Echino., 250 g/ha, rated after 2 to 3 weeks, 9-level scale
Protocol: Post-Emergence Herbicidal Action Monocotyledonous and dicotyledonous test plants are grown in standard soil in pots. […] After a test period of 2 to 3 weeks, the test is evaluated using a 9-level scale of rating (1=complete damage, 9=no effect). […]
Each entry below carries its reported Post-emergence action rating, Echino..

# Compound, Target, Post-emergence action rating, Echino.
records = [
    ("CCCCCCCC(=O)OCc1nc(C(F)(F)F)ccc1C(=O)C1=C(O)C2CCC(C2)C1=O (stereo not drawn) [A843-B52]", "Monocotyledonous and dicotyledonous test plants", 3),
]

Next compound, Post-emergence action rating, Echino. to be filled in.
Here O=C(C1=C(O)C2CCC(C2)C1=O)c1ccc(C(F)(F)F)nc1COCCCO (stereo not drawn) [A847-B52] was tested on Monocotyledonous and dicotyledonous test plants, and its Post-emergence action rating, Echino. came to 1

----------
System: Monocotyledonous and dicotyledonous test plants
Assay: Herbicidal action before emergence of the plants (pre-emergence action), greenhouse pot test, 9-level rating after 4 weeks
Assay type: in vivo
Details: Panicum, 250 g/ha, rated after 4 weeks, 9-level scale
Each entry below carries its reported Pre-emergence action rating, Panicum.

These recorded examples may help you get a feel for the data.
# Molecule, Target, Measured Metric, Result
measured = [
    ("COCCOCc1c(C(=O)C2=C(O)C3CCC(C3)C2=O)ccc(C(F)(F)F)[n+]1[O-] (stereo not drawn) [A736-B52]", "Monocotyledonous and dicotyledonous test plants", "Pre-emergence action rating, Panicum", 1),
    ("COCCOCc1nc(C(F)(F)F)ccc1C(=O)c1cnn(C)c1OS(C)(=O)=O [A10-C28]", "Monocotyledonous and dicotyledonous test plants", "Pre-emergence action rating, Panicum", 1),
    ("CC#CCOCc1nc(C(F)(F)F)ccc1C(=O)c1cnn(C)c1O [A20-C5]", "Monocotyledonous and dicotyledonous test plants", "Pre-emergence action rating, Panicum", 1),
]

Quick note, Pre-emergence action rating, Panicum for COCCOCc1nc(C(F)(F)F)ccc1C(=O)C1=C(O)C(C)(C)C(=O)C(C)(C)C1=O [A10-B39] landed at 1

Quick note, Pre-emergence action rating, Panicum for COCCOCc1nc(C(F)(F)Cl)ccc1C(=O)C1=C(O)C2CCC(C2)C1=O (stereo not drawn) [A556-B52] landed at 1

Quick note, Pre-emergence action rating, Panicum for O=C(C1=C(O)C2CCC(C2)C1=O)c1ccc(C(F)(F)F)nc1COCCOC1CCCCO1 (stereo not drawn) [A842-B52] landed at 1

Quick note, Pre-emergence action rating, Panicum for O=C(C1=C(O)C2CCC(C2)C1=O)c1ccc(C(F)(F)F)nc1COC1CCCCO1 (stereo not drawn) [A28-B52] landed at 1

Quick note, Pre-emergence action rating, Panicum for COCCOCc1nc(C(F)(F)F)ccc1C(=O)C1=C(O)CCCC1=O [A10-B1] landed at 2

Quick note, Pre-emergence action rating, Panicum for C=CCOCc1nc(C(F)(F)F)ccc1C(=O)C1=C(O)C2CCC(C2)C1=O (stereo not drawn) [A19-B52] landed at 1

----------
System: Monocotyledonous and dicotyledonous test plants
Experiment: Post-emergence herbicidal action, greenhouse pot test, sprayed at the 2- to 3-leaf stage, 9-level rating after 2 to 3 weeks
Assay type: in vivo
Settings: Amaranth, 250 g/ha, rated after 2 to 3 weeks, 9-level scale
Procedure: Post-Emergence Herbicidal Action Monocotyledonous and dicotyledonous test plants are grown in standard soil in pots. […] After a test period of 2 to 3 weeks, the test is evaluated using a 9-level scale of rating (1=complete damage, 9=no effect). […]
Measured Metric: Post-emergence action rating, Amaranth
I'd appreciate a reply containing only the number, no unit.

# Molecule, Numeric Result
records = [
    ("COCCCOCc1nc(C(F)(F)F)ccc1C(=O)C1=C(O)C2CCC(C2)C1=O (centres unmarked) [A846-B52]", 2),
    ("COCCOCc1nc(C(F)(F)F)ccc1C(=O)C1=C(O)CC(C)CC1=O (centres unmarked) [A10-B111]", 2),
    ("C#CCCOCc1nc(C(F)(F)F)ccc1C(=O)C1=C(O)C2CCC(C2)C1=O (centres unmarked) [A836-B52]", 2),
    ("CS(=O)(=O)OCCOCc1nc(C(F)(F)F)ccc1C(=O)C1=C(O)C2CCC(C2)C1=O (centres unmarked) [A862-B52]", 2),
    ("N#CCCOCc1nc(C(F)(F)F)ccc1C(=O)C1=C(O)C2CCC(C2)C1=O (centres unmarked) [A849-B52]", 2),
    ("COCCOCc1nc(C(F)(F)F)ccc1C(=O)C1=C(O)CCCC1=O [A10-B1]", 2),
    ("C#CCOCc1nc(C(F)(F)F)ccc1C(=O)C1=C(O)C2CCC(C2)C1=O (centres unmarked) [A18-B52]", 1),
    ("COCOCc1nc(C(F)(F)F)ccc1C(=O)C1=C(O)C2CCC(C2)C1=O (centres unmarked) [A8-B52]", 1),
    ("COCCOCc1nc(C(F)(F)F)ccc1C(=O)C1=C(O)C2CCC(C2)C1=O (centres unmarked) [A10-B52, (H3)]", 2),
    ("C=CCOCCOCc1nc(C(F)(F)F)ccc1C(=O)C1=C(O)C2CCC(C2)C1=O (centres unmarked) [A840-B52]", 2),
]

Quick note, Post-emergence action rating, Amaranth for CCOCc1nc(C(F)(F)F)ccc1C(=O)c1cnn(C)c1O [A2-C5] landed at 1

Quick note, Post-emergence action rating, Amaranth for O=C(C1=C(O)C2CCC(C2)C1=O)c1ccc(C(F)(F)F)nc1COC1CCCCO1 (centres unmarked) [A28-B52] landed at 1

Quick note, Post-emergence action rating, Amaranth for COCCOCc1nc(C(F)(F)F)ccc1C(=O)C1=C(O)C(C)(C)ON(C)C1=O [A10-B25] landed at 2

Quick note, Post-emergence action rating, Amaranth for O=C(C1=C(O)C2CCC(C2)C1=O)c1ccc(C(F)(F)F)nc1COCC1CO1 (centres unmarked) [A57-B52 (H5)] landed at 1

Quick note, Post-emergence action rating, Amaranth for O=C(C1=C(O)C2CCC(C2)C1=O)c1ccc(C(F)(F)F)nc1COCCO (centres unmarked) [A856-B52] landed at 2

Where these numbers come from: patent US7378375B1
